Source: patent US10662205B2

Measured pKi, listed per entry.
measured_on: KPC-2 (Klebsiella pneumoniae, UniProt Q9F663)
Sequence (Q9F663 25-293, looked up, species assumed): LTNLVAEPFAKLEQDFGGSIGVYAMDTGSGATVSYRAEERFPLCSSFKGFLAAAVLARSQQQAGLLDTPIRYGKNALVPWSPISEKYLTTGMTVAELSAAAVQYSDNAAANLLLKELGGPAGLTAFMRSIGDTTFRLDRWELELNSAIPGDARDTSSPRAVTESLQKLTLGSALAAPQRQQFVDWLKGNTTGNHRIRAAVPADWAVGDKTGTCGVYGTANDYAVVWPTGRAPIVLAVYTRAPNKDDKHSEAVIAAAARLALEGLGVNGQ
procedure_details: Inhibition of nitrocefin cleavage by purified enzyme (Ki)
measurement_setup: nitrocefin reporter substrate; 10 min preincubation; read-out: Ki KPC-2, NCF
pKi: −log10 of the molar value.

compound: Cn1nnnc1SCC(=O)N[C@H]1CC=C[C@@H]2CC(=O)OB1O2 [Compound 4]
pKi: 6.00 to 7.00

API: the following record is the query input.
Task: Entry under review: Cc1nnc(SCC(=O)N[C@H]2CC=C[C@@H]3CC(=O)OB2O3)s1 [Compound 8] . Reported pKi?
Result: 6.00 to 7.00

----------
Test system: ec302 (TEM-10)
procedure_details: Aztreonam potentiation (MPC@4)
Type: cell-based
measurement_setup: aztreonam 4 μg/mL
observable: MPC@4 aztreonam potentiation

Reference set, count: 4
compound: CSCC(=O)N[C@H]1CC=C[C@@H]2CC(=O)OB1O2
MPC@4 aztreonam potentiation: X (X = MPC@4 ≤ 5 μg/mL)
//
compound: C[C@]1(Cn2ccnn2)[C@H](C(=O)O)N2C(=O)C[C@H]2S1(=O)=O [Tazobactam, reference compound]
MPC@4 aztreonam potentiation: X (X = MPC@4 ≤ 5 μg/mL)
//
compound: O=C(CSc1nncs1)N[C@H]1CC=C[C@@H]2CC(=O)OB1O2
MPC@4 aztreonam potentiation: X (X = MPC@4 ≤ 5 μg/mL)
//
compound: Cc1nnc(SCC(=O)N[C@H]2CC=C[C@@H]3CC(=O)OB2O3)s1
MPC@4 aztreonam potentiation: X (X = MPC@4 ≤ 5 μg/mL)

Task: Which MPC@4 aztreonam potentiation value belongs to Nc1nnc(SCC(=O)N[C@H]2CC=C[C@@H]3CC(=O)OB2O3)s1 ?
Result: X (X = MPC@4 ≤ 5 μg/mL)

Task: Entry under review: N#CCSCC(=O)N[C@H]1CC=C[C@@H]2CC(=O)OB1O2 . Reported MPC@4 aztreonam potentiation?
Result: X (X = MPC@4 ≤ 5 μg/mL)

Task: Fill in: MPC@4 aztreonam potentiation of O=C(CSC(F)F)N[C@H]1CC=C[C@@H]2CC(=O)OB1O2 is ___
Result: X (X = MPC@4 ≤ 5 μg/mL)

Task: Consider the compound O=C(O)[C@H]1/C(=C/CO)O[C@@H]2CC(=O)N21 [Clavulanic Acid, reference compound] and give its measured MPC@4 aztreonam potentiation.
Result: X (X = MPC@4 ≤ 5 μg/mL)

Task: Need MPC@4 aztreonam potentiation, item Cn1nnnc1SCC(=O)N[C@H]1CC=C[C@@H]2CC(=O)OB1O2
Result: X (X = MPC@4 ≤ 5 μg/mL)

----------
measured_on: KPC-2 (Klebsiella pneumoniae)
procedure_details: Inhibition of nitrocefin cleavage by purified enzyme (Ki)
measurement_setup: nitrocefin reporter substrate; 10 min preincubation; read-out: Ki KPC-2, NCF
pKi: −log10 of the molar value.
Listed here: items and their measured pKi.

compound: O=C(CSC(F)F)N[C@H]1CC=C[C@@H]2CC(=O)OB1O2 [Compound 3]
measured_on: KPC-2 (Klebsiella pneumoniae)
pKi: 6.00 to 7.00
//
compound: Cn1cnnc1SCC(=O)N[C@H]1CC=C[C@@H]2CC(=O)OB1O2 [Compound 5]
measured_on: KPC-2 (Klebsiella pneumoniae)
pKi: 6.00 to 7.00

Task: Return reported pKi; argument: O=C(O)[C@H]1/C(=C/CO)O[C@@H]2CC(=O)N21 [Clavulanic Acid, reference compound]
Result: < 6.00
